# TARGET_UNDER_TEST: CYP2C9 (Homo sapiens, UniProt P11712)
# Sequence (P11712 whole entry): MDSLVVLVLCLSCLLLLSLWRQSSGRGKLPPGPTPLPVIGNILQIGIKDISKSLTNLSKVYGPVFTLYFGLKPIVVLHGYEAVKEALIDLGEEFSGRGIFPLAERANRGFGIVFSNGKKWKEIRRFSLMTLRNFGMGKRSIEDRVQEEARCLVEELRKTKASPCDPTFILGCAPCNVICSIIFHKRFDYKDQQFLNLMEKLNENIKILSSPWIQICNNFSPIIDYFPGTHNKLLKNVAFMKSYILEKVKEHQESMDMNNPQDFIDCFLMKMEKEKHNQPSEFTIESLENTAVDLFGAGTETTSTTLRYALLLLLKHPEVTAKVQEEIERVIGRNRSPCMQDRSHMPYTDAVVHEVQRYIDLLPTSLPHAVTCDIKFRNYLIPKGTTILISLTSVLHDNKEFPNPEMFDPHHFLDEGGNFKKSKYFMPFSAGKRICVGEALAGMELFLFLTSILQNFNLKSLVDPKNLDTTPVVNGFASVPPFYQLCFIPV
# ASSAY_TEXT: Inhibition of CYP2C9 in pooled human liver microsomes at 10 uM pre-incubated for 5 mins before NADPH addition and measured after 10 mins by UPLC-MS/MS analysis relative to control
# Assay type: ADME
PARAMETER_MEASURED: inhibition at 10 min, 10 µM (%)
Numeric answer only, unit % assumed.

Item COC(=O)N[C@H](C(=O)N1CCC[C@H]1c1ncc(-c2ccc3c(c2)OCC(C)(C)COc2cc(-c4cnc([C@@H]5CCCN5C(=O)[C@@H](NC(=O)OC)C(C)C)[nH]4)ccc2-3)[nH]1)C(C)C : provide inhibition at 10 min, 10 µM
0

Output measured inhibition at 10 min, 10 µM for this item: COC(=O)N[C@H](C(=O)N1CCC[C@H]1c1ncc(-c2ccc3c(ccc4cc(-c5cnc([C@@H]6CCCN6C(=O)[C@@H](NC(=O)OC)C(C)C)[nH]5)sc43)c2)[nH]1)C(C)C
42

Supply measured inhibition at 10 min, 10 µM of COC(=O)N[C@H](C(=O)N1CCC[C@H]1c1ncc(-c2ccc3c(c2)OCc2cc(-c4cnc([C@@H]5CCCN5C(=O)[C@@H](NC(=O)OC)C(C)C)[nH]4)sc2-3)[nH]1)C(C)C in your reply.
41

State, in one line, measured inhibition at 10 min, 10 µM of COC(=O)N[C@H](C(=O)N1CCC[C@H]1c1ncc(-c2ccc3c(c2)CCc2cc(-c4cnc([C@@H]5CCCN5C(=O)[C@@H](NC(=O)OC)C(C)C)[nH]4)sc2-3)[nH]1)C(C)C
35

Provide inhibition at 10 min, 10 µM value for the following compound: COC(=O)N[C@H](C(=O)N1CCC[C@H]1c1nc(Cl)c(-c2ccc3c(c2)OCC(C)(C)COc2cc(-c4[nH]c([C@@H]5CCCN5C(=O)[C@@H](NC(=O)OC)C(C)C)nc4Cl)ccc2-3)[nH]1)C(C)C
29

====

# ASSAY_TEXT: AUC (last) in rat at 30 mg/kg, po measured up to 24 hrs by LC-MS/MS analysis
# Format: ADME, organism-based
# Design: dose 30 mg/kg, time 0 - last, route oral
# TEST_PARAMETERS: in vivo
Task for the reader: assign each of the following molecules its reported AUC(0-t) at 24 h.
Please state the figure in µM·h; there is no need to write the unit.

Give AUC(0-t) at 24 h for the following molecule: COC(=O)N[C@H](C(=O)N1CCC[C@H]1c1ncc(-c2ccc3c(ccc4cc(-c5cnc([C@@H]6CCCN6C(=O)[C@@H](NC(=O)OC)C(C)C)[nH]5)sc43)c2)[nH]1)C(C)C
24

Retrieve AUC(0-t) at 24 h measured for COC(=O)N[C@H](C(=O)N1CCC[C@H]1c1ncc(-c2ccc3c(c2)OCc2cc(-c4cnc([C@@H]5CCCN5C(=O)[C@@H](NC(=O)OC)C(C)C)[nH]4)sc2-3)[nH]1)C(C)C and print it.
28

Input COC(=O)N[C@H](C(=O)N1CCC[C@H]1c1ncc(-c2ccc3c(c2)CCc2cc(-c4cnc([C@@H]5CCCN5C(=O)[C@@H](NC(=O)OC)C(C)C)[nH]4)sc2-3)[nH]1)C(C)C , output reported AUC(0-t) at 24 h.
77
